- tgt: human PRS protein (Homo sapiens, UniProt P07814)
- Construct: to construct His-Avi-hEPRS (998-1512) expression plasmid; His tag (N); Avi tag (N); TEV cleavage site (ENLYFQ/GS, encoded by forward primer hEPRS-TEV-NheF) (N); made in house; host or cells: E. coli BL21(DE3)
- Sequence (P07814 998-1512): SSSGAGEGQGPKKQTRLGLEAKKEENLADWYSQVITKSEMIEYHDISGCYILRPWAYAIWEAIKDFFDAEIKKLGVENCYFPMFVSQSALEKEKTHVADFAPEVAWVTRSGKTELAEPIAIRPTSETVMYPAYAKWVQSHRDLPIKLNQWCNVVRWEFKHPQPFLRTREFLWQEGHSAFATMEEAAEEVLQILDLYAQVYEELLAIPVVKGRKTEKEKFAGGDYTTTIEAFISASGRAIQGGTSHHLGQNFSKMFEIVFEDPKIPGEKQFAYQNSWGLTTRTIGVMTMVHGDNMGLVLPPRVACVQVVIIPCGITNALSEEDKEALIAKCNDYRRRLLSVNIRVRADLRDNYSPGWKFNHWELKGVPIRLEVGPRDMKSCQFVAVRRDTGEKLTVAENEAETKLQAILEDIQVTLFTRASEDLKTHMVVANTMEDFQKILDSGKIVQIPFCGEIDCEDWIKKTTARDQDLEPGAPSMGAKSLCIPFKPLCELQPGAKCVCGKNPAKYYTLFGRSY
- assayComment: PRS inhibitory activity (ATP/[32P]pyrophosphate exchange enzyme reaction)
- Type: biochemical
- conditionContext: 300 nM test compound; recombinant human PRS (EPRS 998-1512); read-out: inhibitory rate (%) of PRS
Could you please report measured inhibition at 0.3 µM for the items listed next?
Numbers only, in %.

Would you be so kind as to report inhibition at 0.3 µM for each listed record?
1. Cn1cc(-c2ccc(F)c(CC(=O)Nc3cc(N4CC[C@@](C#N)(C5CC5)C4=O)ccn3)c2)cn1
2. N#C[C@@]1(C2CC2)CCN(c2ccnc(NC(=O)Cc3cccc(-c4cnn(CC(F)(F)C(F)F)c4)c3)c2)C1=O
3. COC(=O)Cn1cc(-c2cccc(CC(=O)Nc3cc(N4CC[C@@](C#N)(C5CC5)C4=O)ccn3)c2)cn1
4. N#C[C@@]1(C2CC2)CCN(c2ccnc(NC(=O)Cc3cccc(-c4cnn(CCc5ccccc5)c4)c3)c2)C1=O
5. N#CCCCn1cc(-c2cccc(CC(=O)Nc3cc(N4CC[C@@](C#N)(C5CC5)C4=O)ccn3)c2)cn1
6. N#C[C@@]1(C2CC2)CCN(c2ccnc(NC(=O)Cc3cccc(-c4cnn(CC(F)F)c4)c3)c2)C1=O
7. N#C[C@@]1(C2CC2)CCN(c2ccnc(NC(=O)Cc3cccc(-c4cnn(CC5CCCCO5)c4)c3)c2)C1=O (some centres unmarked)
8. Cn1cc(-c2cccc(CC(=O)Nc3cc(N4CC[C@@](C#N)(C5CC5)C4=O)ccn3)c2)cn1

1: 100; 2: 99; 3: 99; 4: 97; 5: 99; 6: 100; 7: 99; 8: 100

Would you be so kind as to report inhibition at 0.3 µM for each listed record?
1. CC(C)(O)Cn1cc(-c2cccc(CC(=O)Nc3cc(N4CC[C@@](C#N)(C5CC5)C4=O)ccn3)c2)cn1
2. N#C[C@@]1(C2CC2)CCN(c2ccnc(NC(=O)Cc3cccc(-c4cnn(CCn5ccnc5)c4)c3)c2)C1=O
3. N#C[C@@]1(C2CC2)CCN(c2ccnc(NC(=O)Cc3cccc(-c4cnn(CC5CCC5)c4)c3)c2)C1=O
4. N#CC1(C2CCC2)CCN(c2ccnc(NC(=O)Cc3cccc4ccccc34)c2)C1=O (centres unmarked)
5. Cn1cc(-c2cccc(CC(=O)Nc3cc(N4CC[C@@](C#N)(C5CC5)C4=O)cc(C(F)F)n3)c2)cn1
6. Cc1cc(N2CC[C@@](C#N)(C3CC3)C2=O)cc(NC(=O)Cc2cc(F)cc(-c3ccc(=O)n(C)c3)c2)n1

99
97
98
80
95
99

Would you be so kind as to report inhibition at 0.3 µM for each listed record?
1. Cc1cc(N2CC[C@@](C#N)(C3CC3)C2=O)cc(NC(=O)Cc2cccc(-c3cn(C)nc3C)c2)n1
2. COc1cccc(CC(=O)Nc2cc(N3CC[C@@](C#N)(C4CC4)C3=O)ccn2)c1
3. N#C[C@@]1(C2CC2)CCN(c2cc(NC(=O)Cc3cccc(Cl)c3)ncn2)C1=O
4. Cn1cc(-c2cccc(CC(=O)Nc3cc(N4CC[C@@](C#N)(C5CC5)C4=O)cc(F)n3)c2)cn1

100
88
57
99
